system: P388; test: Antitumor activity against mouse P388 cells allografted in mouse assessed as increase of median life span at 200 mg/kg, ip on day 1, 5 and 9 measured up to 60 days relative to control; type: functional; settings: route intraperitoneal
// label 0 strictly below 40% in ILS at 200 mg/kg; label 1 otherwise

Cc1ccc2c(c1)C(=O)c1c(NCCN(C)C)ccc(NCCN(C)C)c1C2=O    label 0
CC(C)N(CCNc1ccc(NCCN(C(C)C)C(C)C)c2c1C(=O)c1c(O)ccc(O)c1C2=O)C(C)C    label 0
O=C1c2c(O)ccc(O)c2C(=O)c2c(NCCN3CCOCC3)ccc(NCCN3CCOCC3)c21    label 0
NCCNc1ccc(NCCN)c2c1C(=O)c1ccccc1C2=O    label 1

Incoming: Check the entry CC(=O)NCCNc1ccc(NCCNC(C)=O)c2c1C(=O)c1c(O)ccc(O)c1C2=O : does ILS at 200 mg/kg equal or exceed 40%?
Outgoing: label 0

Incoming: For O=C1c2c(O)ccc(O)c2C(=O)c2c(NCCN(CCO)CCO)ccc(NCCN(CCO)CCO)c21 then?
Outgoing: label 1

Incoming: And then CN(C)CCCNc1ccc(NCCCN(C)C)c2c1C(=O)c1ccccc1C2=O , what is it?
Outgoing: label 0

Incoming: Try the compound CCN1CCCC1CNc1ccc(NCC2CCCN2CC)c2c1C(=O)c1c(O)ccc(O)c1C2=O (centres undefined)
Outgoing: label 1
